The values you see were collected from patent US12091387B2.

This listing pairs compounds with measured IC50.
- target_or_system: recombinant human cGAS (aa147-522) (Homo sapiens)
- Construct: recombinant human cGAS (aa147-522); His6-SUMO (N, cleaved yes)
- Sequence (Q8N884 147-522): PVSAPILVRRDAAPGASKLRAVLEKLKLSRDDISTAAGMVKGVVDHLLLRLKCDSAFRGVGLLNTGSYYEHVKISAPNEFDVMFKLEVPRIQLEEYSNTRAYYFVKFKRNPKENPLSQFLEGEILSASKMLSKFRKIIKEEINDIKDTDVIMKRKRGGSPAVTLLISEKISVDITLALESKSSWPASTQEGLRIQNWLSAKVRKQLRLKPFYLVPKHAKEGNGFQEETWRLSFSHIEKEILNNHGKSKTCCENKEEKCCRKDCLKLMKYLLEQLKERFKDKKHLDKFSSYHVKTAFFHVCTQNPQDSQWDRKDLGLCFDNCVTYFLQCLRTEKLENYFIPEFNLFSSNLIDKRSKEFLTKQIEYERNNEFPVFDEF
- run_description: In vitro inhibition assay of cGAS activity (KinaseGlo, ATP consumption)
- experimental_parameters: Herring testis DNA, 6.6 μM ATP, 0.1 mM GTP, 37° C. 20 minutes

The examples below pair each entry with its known result.
smi	target_or_system	IC50
O=C(O)CCOC[C@H]1CCCN1c1cc(-n2cncn2)c2cc(Cl)c(Br)cc2n1	recombinant human cGAS (aa147-522) (Homo sapiens)	2 to 30 µM
O=C(O)CCOC[C@@H]1CC2(CC2)CN1c1cc(-n2cncn2)c2cc(Cl)c(Br)cc2n1	recombinant human cGAS (aa147-522) (Homo sapiens)	< 2 µM
CN1CCN(c2cc(N3CCC[C@H]3COCCC(=O)O)nc3c(Cl)c(Cl)ccc23)CC1	recombinant human cGAS (aa147-522) (Homo sapiens)	> 30 µM

Let us examine a further case.
Per the records, this compound ( `COc1cccc(-c2cc(N3CCC[C@H]3COCCC(=O)O)nc3c(Cl)c(Cl)ccc23)c1` ) has IC50 equal to > 30 µM
